# Target Desc: UniProt P22314
# Sequence (P22314 whole entry): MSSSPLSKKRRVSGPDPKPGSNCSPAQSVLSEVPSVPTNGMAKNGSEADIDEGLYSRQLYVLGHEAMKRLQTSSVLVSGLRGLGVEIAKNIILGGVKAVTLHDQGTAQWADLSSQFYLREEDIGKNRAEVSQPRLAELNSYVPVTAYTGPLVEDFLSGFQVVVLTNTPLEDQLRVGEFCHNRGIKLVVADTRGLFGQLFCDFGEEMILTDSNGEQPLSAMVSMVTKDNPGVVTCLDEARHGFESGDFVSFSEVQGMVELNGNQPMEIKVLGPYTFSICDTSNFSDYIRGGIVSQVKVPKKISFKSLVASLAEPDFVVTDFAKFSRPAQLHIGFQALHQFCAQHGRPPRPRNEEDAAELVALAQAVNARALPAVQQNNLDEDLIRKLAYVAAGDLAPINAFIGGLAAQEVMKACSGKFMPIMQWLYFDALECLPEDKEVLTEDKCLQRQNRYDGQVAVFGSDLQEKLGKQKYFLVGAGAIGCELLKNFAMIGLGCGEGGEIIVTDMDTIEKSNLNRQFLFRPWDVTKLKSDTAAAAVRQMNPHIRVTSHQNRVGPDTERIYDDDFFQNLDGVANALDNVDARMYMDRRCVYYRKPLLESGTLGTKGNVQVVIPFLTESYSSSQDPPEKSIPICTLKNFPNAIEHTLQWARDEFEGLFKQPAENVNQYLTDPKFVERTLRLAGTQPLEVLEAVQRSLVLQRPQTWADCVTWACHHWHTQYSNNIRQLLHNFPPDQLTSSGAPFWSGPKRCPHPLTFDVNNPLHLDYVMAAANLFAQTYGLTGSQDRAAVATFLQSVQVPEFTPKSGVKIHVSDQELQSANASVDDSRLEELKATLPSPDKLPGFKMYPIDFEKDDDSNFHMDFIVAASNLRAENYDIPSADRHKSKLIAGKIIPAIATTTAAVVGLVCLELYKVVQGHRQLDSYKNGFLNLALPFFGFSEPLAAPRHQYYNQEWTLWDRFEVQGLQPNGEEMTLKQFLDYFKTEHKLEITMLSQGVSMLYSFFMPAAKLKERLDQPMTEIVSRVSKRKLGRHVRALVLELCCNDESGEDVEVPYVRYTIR
# Method Summary: Inhibition of recombinant fluorescein-tagged E1 assessed as inhibition of ubiquitin-E1 adduct formation incubated for 15 mins prior to ATP addition measured after 5 mins by SDS PAGE analysis
Readout Type: IC50 (µM)
Respond with the bare value in µM.

Enquiry: Tell me reported IC50 for CCCCCCCC(=O)SCC/C=C/[C@@H]1CC(=O)NCc2nc(cs2)C2=N[C@@](C)(CS2)C(=O)N[C@@H](C(C)C)C(=O)O1 [LARGAZOLE] , tested with UniProt P22314.
Return: 29
